- EXPERIMENTAL_PROTOCOL: Noncompartmental pharmacokinetic parameters (Cmax, Tmax, AUC, Racc) in QD and BID cohorts of Form B
- Format: in vivo, human
- EXPERIMENTAL_SETUP: human, plasma, oral, 100 mg, Compound I; 100 mg BID of Form B; Cohort 6; Day 29; read-out: AUClast (Median)
MEASURED_PROPERTY: AUC(0-t) (ng·h/mL)

>>> print(df.to_string())
                            chemical_smiles  measured_property  unit_text  recorded_result
0  CC(C)N1CCN(c2ccc(Nc3ncc4cc5n(c4n3)C3(CCCCC3)CNC5=O)nc2)CC1           AUC(0-t)    ng·h/mL             88.2

----------
- EXPERIMENTAL_PROTOCOL: Pharmacokinetics of Compound I in healthy volunteers after a single dose of Form B of Compound II
- Type: in vivo, human
- EXPERIMENTAL_SETUP: human, plasma, oral, single 600 mg dose of Form B of Compound II
MEASURED_PROPERTY: Cmax (ng/mL)

>>> print(df.to_string())
                            chemical_smiles  measured_property  recorded_result
0  CC(C)N1CCN(c2ccc(Nc3ncc4cc5n(c4n3)C3(CCCCC3)CNC5=O)nc2)CC1               Cmax               59

----------
- EXPERIMENTAL_PROTOCOL: Plasma concentration versus time of Compound I and metabolite Compound III in patients dosed QD or BID with Form B of Compound II plus fulvestrant
- Assay type: in vivo, human
- EXPERIMENTAL_SETUP: human, plasma, oral, 200 mg, 200 mg QD of Form B, Day 29, […], Mean; read-out: Compound I Concentration
MEASURED_PROPERTY: concentration at 24 h (ng/mL)

                            chemical_smiles  unit_text  recorded_result
0  CC(C)N1CCN(c2ccc(Nc3ncc4cc5n(c4n3)C3(CCCCC3)CNC5=O)nc2)CC1      ng/mL             6.01

----------
- EXPERIMENTAL_PROTOCOL: Plasma concentration versus time of Compound I and metabolite Compound III in patients dosed QD or BID with Form B of Compound II plus fulvestrant
- Type: in vivo, human
- EXPERIMENTAL_SETUP: human, plasma, oral, 500 mg, Cohort 4, 500 mg QD of Form B, Day 15; read-out: Trough Compound III Concentration, Median
MEASURED_PROPERTY: concentration at 15 day (ng/mL)

In [3]: df
Out[3]:
                            chemical_smiles        measured_property  unit_text  recorded_result
0  O=C1NCC2(CCCCC2)n2c1cc1cnc(Nc3ccc(N4CCNCC4)cn3)nc12  concentration at 15 day      ng/mL             2.15

----------
- EXPERIMENTAL_PROTOCOL: Noncompartmental pharmacokinetic parameters (Cmax, Tmax, AUC, Racc) in QD and BID cohorts of Form B
- Type: in vivo, human
- EXPERIMENTAL_SETUP: human, plasma, oral, 650 mg, Cohort 5, 650 mg QD of Form B, Day 1; read-out: Tmax, Median
MEASURED_PROPERTY: Tmax (h)

                                   compound  measured_property  recorded_result
0  CC(C)N1CCN(c2ccc(Nc3ncc4cc5n(c4n3)C3(CCCCC3)CNC5=O)nc2)CC1 [Compound I]               Tmax                8

Cited source: patent US11357779B2
